- assay-system: cynomolgus LIV-1 (cynomolgus, UniProt A0A2K5WH46 30-741)
- Sequence (A0A2K5WH46 entry or part of it): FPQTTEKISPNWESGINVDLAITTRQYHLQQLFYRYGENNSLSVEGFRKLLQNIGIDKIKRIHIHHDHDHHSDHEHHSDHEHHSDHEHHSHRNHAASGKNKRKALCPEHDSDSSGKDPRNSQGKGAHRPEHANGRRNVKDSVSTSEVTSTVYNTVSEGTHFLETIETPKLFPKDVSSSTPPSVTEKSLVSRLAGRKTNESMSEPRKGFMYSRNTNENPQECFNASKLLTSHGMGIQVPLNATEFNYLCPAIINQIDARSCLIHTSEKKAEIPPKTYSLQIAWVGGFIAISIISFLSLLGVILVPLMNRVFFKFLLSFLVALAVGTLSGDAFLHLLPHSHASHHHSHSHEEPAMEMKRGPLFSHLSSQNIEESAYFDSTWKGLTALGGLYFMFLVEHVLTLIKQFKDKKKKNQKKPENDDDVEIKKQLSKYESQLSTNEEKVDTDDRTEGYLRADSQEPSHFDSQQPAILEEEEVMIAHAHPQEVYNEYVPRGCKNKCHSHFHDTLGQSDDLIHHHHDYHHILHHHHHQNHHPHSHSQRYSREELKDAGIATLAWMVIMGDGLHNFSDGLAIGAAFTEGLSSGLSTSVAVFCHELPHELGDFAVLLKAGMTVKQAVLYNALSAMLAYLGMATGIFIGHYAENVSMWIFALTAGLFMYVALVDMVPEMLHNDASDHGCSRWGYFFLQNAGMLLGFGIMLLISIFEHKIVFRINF
- test-protocol: FACS, HEK293/Cyno_LIV-1 cells
assay-metric: EC50 (nM)
Numeric only. Scale: nM

The cases that follow already have their EC50 on record.
binder: 124H4D11.p2.z1 (antibody, V domains shown) VH: QVQLVQSGAEVVKPGASVKVSCKASGFNIKDYYMHWVRQAPGQGLEWIGWIDPENDDTEYDPKFQGRVTMTADTSTSTVYMELSSLRSEDTAVYYCAARYYAFDYWGQGTMVTVSS VL: DVQMTQSPSSLSASVGDRVTITCRSSQSIVHSNANTYLEWYLQKPGKSPKLLIYKVSNRFSGVPDRFSGSGSGTDFTLTISSLQPEDFATYYCFQGSQVPPTFGQGTRLEIK
assay-metric: EC50
measured-result: 0.29
--
binder: 5D6B10.Z7 (antibody, V domains shown) VH: QVQLVQSGGGVVQPGRSLRLSCTVSGFSLTTYGIHWVRQSPGKGLEWLGVIWTGGTTDYNAAFISRLTISKDNSKSTVYFQMNSLQAEDTAIYYCARGPSSYWGQGTLVTVSS VL: EIVMTQSPATLSVSPGERATLSCKASQNVDTNVVWYQQKPGQSPRALIYSASYRYSGVPARFSGSGSGTEFTLTISSLQSEDFAVYFCQQYNNYPWTFGQGTKVEIK
assay-metric: EC50
measured-result: 0.19

**Q:** I'd like to know its EC50. The binder in question is 5D6B10.Z10 (antibody, V domains shown) VH: QVQLQESGPGLVKPSGTLSLTCAVSGFSLTTYGIHWVRQSPGKGLEWLGVIWTGGTTDYNAAFISRLTISKDKSKNQVSLKLSSVTAADTAVYYCARGPSSYWGQGTLVTVSS VL: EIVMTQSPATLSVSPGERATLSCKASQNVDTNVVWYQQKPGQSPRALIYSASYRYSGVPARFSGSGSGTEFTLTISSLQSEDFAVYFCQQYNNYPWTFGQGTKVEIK
**A:** 0.47
